# measured_target: UniProt Q8WYB5
# protocol_text: KAT assay (SAMDI mass spectrometry), KAT6B
# Format: biochemical
# details: 1 μM AcCoA
outcome_measure: Ki (nM)

COc1cccc(OC)c1S(=O)(=O)Nc1noc2cc(Cn3cc(C)cn3)cc(OC)c12 [Example 100] :: 58.3

###

# measured_target: KAT7 (Homo sapiens (Human), UniProt O95251)
# Sequence (O95251 whole entry): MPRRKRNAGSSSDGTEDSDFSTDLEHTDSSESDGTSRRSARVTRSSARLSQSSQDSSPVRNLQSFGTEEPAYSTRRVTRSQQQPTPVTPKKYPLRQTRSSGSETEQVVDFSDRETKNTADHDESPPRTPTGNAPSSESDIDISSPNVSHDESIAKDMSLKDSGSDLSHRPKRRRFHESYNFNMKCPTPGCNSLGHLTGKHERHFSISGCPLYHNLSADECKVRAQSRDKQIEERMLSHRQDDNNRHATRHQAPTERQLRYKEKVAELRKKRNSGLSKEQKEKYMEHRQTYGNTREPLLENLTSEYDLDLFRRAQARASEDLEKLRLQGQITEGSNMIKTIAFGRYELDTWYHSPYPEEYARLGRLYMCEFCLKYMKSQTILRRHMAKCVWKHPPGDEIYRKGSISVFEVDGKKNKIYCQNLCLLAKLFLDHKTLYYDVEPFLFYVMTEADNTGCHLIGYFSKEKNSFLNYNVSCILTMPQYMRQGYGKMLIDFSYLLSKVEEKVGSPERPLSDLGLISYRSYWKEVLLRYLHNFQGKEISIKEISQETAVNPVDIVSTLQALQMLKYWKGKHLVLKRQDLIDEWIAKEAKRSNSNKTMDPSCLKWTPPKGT
# protocol_text: KAT assay (SAMDI mass spectrometry), KAT7;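 also: Baculovirus-expressed enzyme acetylating a histone peptide at room temperature, percent conversion from product and substrate peak areas, Ki from a Morrison tight-binding competitive fit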
# Assay type: biochemical
# details: read-out: KAT7 Ki at 1 μM AcCoA
pKi: −log10 of the molar value.
outcome_measure: pKi

COc1ccc(S(=O)(=O)Nc2noc3cc(Cn4cccn4)cc(OC)c23)c(OC)c1 :: 7.10
COc1ccccc1S(=O)(=O)Nc1noc2cc(Cn3cccn3)cc(C3CC3)c12 :: 7.00
COc1cc(Cn2cccn2)cc2onc(NS(=O)(=O)c3ccc(C(F)F)cc3)c12 :: 6.34
COc1cc2c(cc1S(=O)(=O)Nc1noc3cc(Cn4cccn4)cc(OC)c13)CCC2 :: 7.22
COc1ccc(OC(F)(F)F)cc1S(=O)(=O)Nc1noc2cc(Cn3cccn3)cc(OC)c12 :: 6.92
COc1ccc(Cl)cc1S(=O)(=O)Nc1noc2cc(Cn3cccn3)ccc12 :: 6.01
COc1cc2c(NS(=O)(=O)c3c(OC)cccc3OC)noc2cc1Cn1cccn1 :: 8.10
COc1cccc(OC)c1S(=O)(=O)Nc1noc2cc(Cc3ccccn3)cc(OC)c12 :: 6.43

###

Measured Ki, listed per entry for reference.
# measured_target: KAT6B (Homo sapiens (Human), UniProt Q8WYB5)
# Sequence (Q8WYB5 whole entry): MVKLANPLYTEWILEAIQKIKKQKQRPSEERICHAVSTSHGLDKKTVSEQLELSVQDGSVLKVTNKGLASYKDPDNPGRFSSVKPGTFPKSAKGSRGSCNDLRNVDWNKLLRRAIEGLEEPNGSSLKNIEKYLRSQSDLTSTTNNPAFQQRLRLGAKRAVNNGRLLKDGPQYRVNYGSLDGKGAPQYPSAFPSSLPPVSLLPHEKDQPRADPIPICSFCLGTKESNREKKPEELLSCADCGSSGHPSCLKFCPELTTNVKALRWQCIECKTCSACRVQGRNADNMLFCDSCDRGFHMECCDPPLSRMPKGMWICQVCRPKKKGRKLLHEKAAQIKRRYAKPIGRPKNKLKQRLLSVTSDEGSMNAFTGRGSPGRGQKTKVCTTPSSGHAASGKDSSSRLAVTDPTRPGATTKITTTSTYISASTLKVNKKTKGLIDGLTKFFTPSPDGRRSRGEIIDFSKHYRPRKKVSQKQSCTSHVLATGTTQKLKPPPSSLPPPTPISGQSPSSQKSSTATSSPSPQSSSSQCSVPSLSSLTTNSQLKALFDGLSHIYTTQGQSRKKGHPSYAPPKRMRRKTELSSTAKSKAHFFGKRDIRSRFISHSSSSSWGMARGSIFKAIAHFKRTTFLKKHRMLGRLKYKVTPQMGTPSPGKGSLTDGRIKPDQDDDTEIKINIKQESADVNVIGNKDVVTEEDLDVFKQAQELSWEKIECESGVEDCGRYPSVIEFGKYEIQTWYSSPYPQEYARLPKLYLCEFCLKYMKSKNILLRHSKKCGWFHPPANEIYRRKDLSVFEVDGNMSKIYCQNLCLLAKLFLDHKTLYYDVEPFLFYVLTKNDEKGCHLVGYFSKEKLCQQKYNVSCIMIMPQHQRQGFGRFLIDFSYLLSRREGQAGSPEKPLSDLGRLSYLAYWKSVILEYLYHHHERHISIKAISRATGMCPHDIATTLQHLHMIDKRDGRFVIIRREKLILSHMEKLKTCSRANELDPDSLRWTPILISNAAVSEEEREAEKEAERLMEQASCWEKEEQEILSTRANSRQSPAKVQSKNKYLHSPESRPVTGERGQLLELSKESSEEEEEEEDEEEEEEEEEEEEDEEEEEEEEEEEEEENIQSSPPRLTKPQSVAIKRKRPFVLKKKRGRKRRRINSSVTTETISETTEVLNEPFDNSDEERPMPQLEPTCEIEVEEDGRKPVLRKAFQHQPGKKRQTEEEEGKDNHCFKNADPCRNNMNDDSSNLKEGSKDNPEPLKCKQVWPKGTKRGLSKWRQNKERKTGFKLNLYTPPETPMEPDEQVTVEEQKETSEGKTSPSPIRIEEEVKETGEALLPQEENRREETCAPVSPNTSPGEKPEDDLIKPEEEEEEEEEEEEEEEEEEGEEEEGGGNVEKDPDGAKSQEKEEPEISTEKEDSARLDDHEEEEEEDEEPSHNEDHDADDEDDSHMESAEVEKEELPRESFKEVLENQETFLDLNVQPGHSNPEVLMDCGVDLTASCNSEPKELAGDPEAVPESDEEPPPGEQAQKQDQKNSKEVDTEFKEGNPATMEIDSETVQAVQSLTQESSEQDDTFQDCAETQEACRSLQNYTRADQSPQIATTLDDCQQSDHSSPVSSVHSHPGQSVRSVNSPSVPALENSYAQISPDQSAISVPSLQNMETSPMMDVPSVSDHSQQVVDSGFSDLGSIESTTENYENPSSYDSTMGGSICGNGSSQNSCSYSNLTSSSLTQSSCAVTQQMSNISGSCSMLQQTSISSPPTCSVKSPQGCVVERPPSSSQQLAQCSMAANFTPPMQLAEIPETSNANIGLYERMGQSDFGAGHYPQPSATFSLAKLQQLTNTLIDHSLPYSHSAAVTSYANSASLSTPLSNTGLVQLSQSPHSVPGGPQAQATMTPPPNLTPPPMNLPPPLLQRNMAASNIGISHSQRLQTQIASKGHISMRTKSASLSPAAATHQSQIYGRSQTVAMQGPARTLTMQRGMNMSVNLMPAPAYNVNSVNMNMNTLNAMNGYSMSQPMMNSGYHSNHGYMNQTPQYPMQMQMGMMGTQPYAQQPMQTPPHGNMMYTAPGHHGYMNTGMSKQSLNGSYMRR
# protocol_text: KAT assay (SAMDI mass spectrometry), KAT6B
# Format: biochemical
# details: 25 μM AcCoA; read-out: KAT6b Ki at 25 μM AcCoA
outcome_measure: Ki (nM)

COc1ccc(C2CC2)cc1S(=O)(=O)Nc1noc2cc(Cn3cccn3)cc(OC)c12 [Example 97] :: 2.74
COc1cccc(OC)c1S(=O)(=O)Nc1noc2cc(Cn3cccn3)c(C3CC3)cc12 [Example 31] :: 0.89
COc1cc(Cl)ccc1S(=O)(=O)Nc1noc2cc(Cn3cccn3)cc(OC)c12 [Example 71] :: 2.81
CCc1cc(S(=O)(=O)Nc2noc3cc(Cn4cccn4)cc(OC)c23)c(OC)cc1OC [Example 15] :: 0.6
COc1ccc(OC(F)(F)F)cc1S(=O)(=O)Nc1noc2cc(Cn3cccn3)cc(OC)c12 [Example 16] :: 1.73
COc1cc(C2CC2)cc(OC)c1S(=O)(=O)Nc1noc2cc(Cn3cccn3)cc(OC)c12 [Example 24] :: 1.89
COc1cc2c(NS(=O)(=O)c3c(OC)cccc3OC)noc2cc1Cn1cccn1 [Example 39] :: 0.26
COc1cccc(OC)c1S(=O)(=O)Nc1noc2cc(Cc3ncco3)cc(OC)c12 [Example 110] :: 8.8

###

# measured_target: KAT6A (Homo sapiens (Human))
# Sequence (Q92794 whole entry): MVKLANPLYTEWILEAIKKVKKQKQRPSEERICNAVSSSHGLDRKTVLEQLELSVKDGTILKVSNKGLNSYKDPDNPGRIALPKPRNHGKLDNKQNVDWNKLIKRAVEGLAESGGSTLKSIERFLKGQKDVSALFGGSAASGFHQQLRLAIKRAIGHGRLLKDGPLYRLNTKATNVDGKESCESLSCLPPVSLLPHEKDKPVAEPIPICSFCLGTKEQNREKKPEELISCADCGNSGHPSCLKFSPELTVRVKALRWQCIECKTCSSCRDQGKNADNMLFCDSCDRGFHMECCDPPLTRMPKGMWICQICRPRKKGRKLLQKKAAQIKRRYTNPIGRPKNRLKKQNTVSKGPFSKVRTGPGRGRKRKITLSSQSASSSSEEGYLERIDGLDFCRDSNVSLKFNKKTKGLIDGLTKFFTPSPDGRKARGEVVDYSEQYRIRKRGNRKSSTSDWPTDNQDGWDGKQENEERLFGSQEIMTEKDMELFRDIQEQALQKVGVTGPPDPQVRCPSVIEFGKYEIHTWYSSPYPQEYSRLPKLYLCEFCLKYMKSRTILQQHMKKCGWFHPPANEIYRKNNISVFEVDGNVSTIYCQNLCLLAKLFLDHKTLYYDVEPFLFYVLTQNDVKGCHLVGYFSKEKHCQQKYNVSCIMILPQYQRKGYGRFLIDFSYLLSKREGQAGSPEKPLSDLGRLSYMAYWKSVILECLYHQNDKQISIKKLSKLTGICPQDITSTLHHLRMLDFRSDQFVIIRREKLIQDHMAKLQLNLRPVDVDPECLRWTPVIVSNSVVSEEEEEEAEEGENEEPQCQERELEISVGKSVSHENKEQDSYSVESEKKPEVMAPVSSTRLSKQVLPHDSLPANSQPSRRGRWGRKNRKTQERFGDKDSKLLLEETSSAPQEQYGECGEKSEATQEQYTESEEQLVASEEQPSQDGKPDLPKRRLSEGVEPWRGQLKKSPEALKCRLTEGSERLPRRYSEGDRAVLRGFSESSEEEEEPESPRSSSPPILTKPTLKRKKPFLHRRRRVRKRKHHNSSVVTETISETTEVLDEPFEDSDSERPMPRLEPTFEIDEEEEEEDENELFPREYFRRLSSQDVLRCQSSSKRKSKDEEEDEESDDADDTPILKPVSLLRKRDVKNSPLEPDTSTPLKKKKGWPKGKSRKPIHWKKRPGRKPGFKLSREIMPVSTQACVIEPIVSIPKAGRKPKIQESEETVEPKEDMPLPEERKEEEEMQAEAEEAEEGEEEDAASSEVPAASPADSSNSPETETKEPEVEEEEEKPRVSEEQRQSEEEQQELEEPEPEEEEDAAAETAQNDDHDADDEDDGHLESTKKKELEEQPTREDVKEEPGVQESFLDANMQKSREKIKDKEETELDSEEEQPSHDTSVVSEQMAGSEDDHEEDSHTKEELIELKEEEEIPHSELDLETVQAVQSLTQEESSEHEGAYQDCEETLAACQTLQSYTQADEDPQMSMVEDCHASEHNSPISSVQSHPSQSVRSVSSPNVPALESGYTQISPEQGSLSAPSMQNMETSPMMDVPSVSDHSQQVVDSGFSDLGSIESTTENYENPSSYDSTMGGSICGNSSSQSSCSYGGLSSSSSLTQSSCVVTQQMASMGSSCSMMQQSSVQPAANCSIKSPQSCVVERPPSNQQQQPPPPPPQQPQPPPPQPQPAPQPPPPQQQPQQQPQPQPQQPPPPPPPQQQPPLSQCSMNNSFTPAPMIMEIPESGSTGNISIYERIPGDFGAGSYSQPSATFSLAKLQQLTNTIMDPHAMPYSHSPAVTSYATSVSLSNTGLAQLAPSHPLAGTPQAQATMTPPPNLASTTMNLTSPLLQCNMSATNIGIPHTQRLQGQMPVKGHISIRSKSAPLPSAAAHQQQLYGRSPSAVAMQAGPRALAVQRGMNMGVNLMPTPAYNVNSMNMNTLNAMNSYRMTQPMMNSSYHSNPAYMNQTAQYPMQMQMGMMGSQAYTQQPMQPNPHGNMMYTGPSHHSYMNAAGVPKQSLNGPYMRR
# protocol_text: KAT assay (SAMDI mass spectrometry), KAT6A;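 also: Baculovirus-expressed KAT6A acetylating histone H3 (1-21) peptide (2 µM), 30-60 min at room temperature, % product conversion fitted to Morrison equation for tight-binding competitive inhibitors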
# Format: biochemical
# details: KAT6a Ki at 10 μM AcCoA, 10 μM AcCoA
outcome_measure: Ki

COc1cccc(OC)c1S(=O)(=O)Nc1noc2cc(Cc3ncco3)cc(OC)c12 :: 2.1 nM
COc1cccc(OC)c1S(=O)(=O)Nc1noc2cc(C(O)c3cnoc3)cc(OC)c12 (single isomer, unassigned) [Example 120] :: 212 nM
COc1cccc(OC)c1S(=O)(=O)Nc1noc2cc(C(O)c3cnoc3)cc(OC)c12 (single isomer, unassigned) [Example 121] :: > 600 nM

src = patent US11492346B2
